Source of measurements: patent US20050209157A1

- assayRemarks: in vitro
- Type: cell-based, human
- testParameters: human, human red blood cells, pH 7, Table 41, lower part; read-out: RBC LD50
No end group written: not given here.
Would you kindly list HC50 at 1 h for each of these substances?
State just the number; it will be interpreted in µg/mL.

[ask] Item under review: FAKKLAKKLKKLAKKLAK-NH2 [164 (69)] . Reported HC50 at 1 h?
[reply] 900

[ask] Item under review: FALALKALKKAL-NH2 [106 (144)] . Reported HC50 at 1 h?
[reply] 600

[ask] Item under review: FAKKLAKLAKKLLAL-NH2 [20 (38)] . Reported HC50 at 1 h?
[reply] 350

###

- Tested on: human red blood cells (RBC)
- assayRemarks: in vitro
- Format: cell-based
- testParameters: human red blood cells
No end group written: not given here.
Would you kindly list Peptide toxicity RBC LD/50 for each of these substances?
// print number alone

[ask] Item under review: VAKLLAKLAKKLL-NH2 [compound 30] . Reported Peptide toxicity RBC LD/50?
[reply] 130

[ask] Item under review: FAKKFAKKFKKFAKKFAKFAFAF-NH2 [compound 147] . Reported Peptide toxicity RBC LD/50?
[reply] 10

[ask] Item under review: FALKALKKLKKALKKAL-NH2 [compound 115] . Reported Peptide toxicity RBC LD/50?
[reply] 780

[ask] Item under review: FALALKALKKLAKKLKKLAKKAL-NH2 [compound 10] . Reported Peptide toxicity RBC LD/50?
[reply] 60

[ask] Item under review: FAKLLAKALKKAL-NH2 [compound 66] . Reported Peptide toxicity RBC LD/50?
[reply] 500

###

- Test system: S. pyogenes ATCC19615
- assayRemarks: Antimicrobial assays II, NCCLS broth microdilution MIC
- Format: cell-based, Streptococcus pyogenes
- testParameters: mean of three, in µg/mL
No end group written: not given here.
Would you kindly list S. pyogenes MIC for each of these substances?

[ask] Item under review: FAKLLAKLAKKLL-NH2 [P43] . Reported S. pyogenes MIC?
[reply] 2

[ask] Item under review: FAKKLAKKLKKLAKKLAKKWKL-OH [P72] . Reported S. pyogenes MIC?
[reply] 16

[ask] Item under review: FALALKKALKALKKAL-NH2 [P34] . Reported S. pyogenes MIC?
[reply] 4

[ask] Item under review: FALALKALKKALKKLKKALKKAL-NH2 [P2, reference compound] . Reported S. pyogenes MIC?
[reply] 8

[ask] Item under review: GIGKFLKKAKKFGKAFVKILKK-NH2 [P42, reference compound] . Reported S. pyogenes MIC?
[reply] 4

[ask] Item under review: FALLKALLKKAL-NH2 [P177, FALLKALLKKAL-NH2] . Reported S. pyogenes MIC?
[reply] 4

[ask] Item under review: FAKKLAKKLAKLL-NH2 [P75] . Reported S. pyogenes MIC?
[reply] 4

[ask] Item under review: FAKALKALLKALKAL-NH2 [P64] . Reported S. pyogenes MIC?
[reply] 4

[ask] Item under review: FAKLLAKLAKKL-NH2 [P49] . Reported S. pyogenes MIC?
[reply] 8

[ask] Item under review: FAKLAKKLL-NH2 [P60] . Reported S. pyogenes MIC?
[reply] 8

[ask] Item under review: VALALKALKKLLKKLKKLAKKAL-NH2 [P510] . Reported S. pyogenes MIC?
[reply] 8

[ask] Item under review: FAKFLAKFLKKAL-NH2 [P111, FAKFLAKFLKKAL-NH2] . Reported S. pyogenes MIC?
[reply] 2

[ask] Item under review: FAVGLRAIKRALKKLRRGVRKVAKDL-NH2 [P157, reference compound] . Reported S. pyogenes MIC?
[reply] 8

[ask] Item under review: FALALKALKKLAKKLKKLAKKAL-NH2 [P25] . Reported S. pyogenes MIC?
[reply] 8

[ask] Item under review: FALKALKKLKKALKKAL-NH2 [P153] . Reported S. pyogenes MIC?
[reply] 2

[ask] Item under review: FAKKLAKKLKKLAKLALAK-NH2 [P41] . Reported S. pyogenes MIC?
[reply] 8

[ask] Item under review: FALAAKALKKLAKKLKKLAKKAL-NH2 [P23] . Reported S. pyogenes MIC?
[reply] 8

[ask] Item under review: FAKLLAKLAKKAL-NH2 [P54, FAKLLAKLAKKAL-NH2] . Reported S. pyogenes MIC?
[reply] 8

[ask] Item under review: FAKLLAKLAKKVL-NH2 [P124] . Reported S. pyogenes MIC?
[reply] 16

[ask] Item under review: KYKKALKKLAKLL-NH2 [P146] . Reported S. pyogenes MIC?
[reply] 8

[ask] Item under review: FAKLLAKALKKLL-NH2 [P55] . Reported S. pyogenes MIC?
[reply] 2

[ask] Item under review: FAKKLKKLAKLAKKL-NH2 [P46] . Reported S. pyogenes MIC?
[reply] 16

[ask] Item under review: FAKKLAKLALKLAKL-NH2 [P44] . Reported S. pyogenes MIC?
[reply] 4

[ask] Item under review: FAKKLAKKLL-NH2 [P59] . Reported S. pyogenes MIC?
[reply] 2

[ask] Item under review: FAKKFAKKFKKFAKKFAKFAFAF-NH2 [P301, reference compound] . Reported S. pyogenes MIC?
[reply] 8

[ask] Item under review: FAKLLAKALKKFAL-NH2 [P119, FAKLLAKALKKFAL-NH2] . Reported S. pyogenes MIC?
[reply] 8

[ask] Item under review: FALAKLAKKAKAKLKKALKAL-NH2 [P26] . Reported S. pyogenes MIC?
[reply] 4
